Catalogue of TGI readings, one per entry.
# System: 786-0 renal
# EXPERIMENT: NCI tumour cell line growth inhibition, 48 h
QUANTITY KIND: TGI

>>> result("CC(=O)[CH-]C(=O)c1ccccc1.CC(=O)[CH-]C(=O)c1ccccc1.CC1(C)C2CCC1(C)C([O-])C2.CC1(C)C2CCC1(C)C([O-])C2.[Ti+4]")
"> 100 µM"
>>> result("O=C(COc1ccc(OCC(=O)N2C(=O)CSC2=Nc2ccccc2)cc1)N1C(=O)CSC1=Nc1ccccc1")
"63.2 µM"
>>> result("O=C1C(Cl)=C(Nc2cccc(Cl)c2)C(=O)N1Cc1ccccc1Cl")
"16.3 µM"
>>> result("O=C1C=C(Sc2ccccc2)c2nccc3c2c1nc1ccccc13")
"49.6 µM"
>>> result("C=CCN1C(=O)/C(=C/c2ccc(OC)cc2)NC1=S")
"> 100 µM"
>>> result("CC(=O)OCC1OC(n2c(-c3ccccc3)c(C(C)=O)c(-c3ccc(Cl)cc3)c(C#N)c2=S)C(OC(C)=O)C(OC(C)=O)C1OC(C)=O (stereo not drawn)")
"> 100 µM"
>>> result("COc1ccc(/C=C/C(=O)/C=C/c2ccc(OC)cc2)cc1")
"> 100 µM"
>>> result("CCCCc1c2c(nc3c1CCCC3O)CCCC2 (stereo not drawn)")
"> 100 µM"

----------
# Test system: K-562 leukemia
# EXPERIMENT: NCI tumour cell line growth inhibition, 48 h
Catalogue of TGI readings, one per entry.
QUANTITY KIND: TGI

>>> result("COc1cc(NC(C)=O)ccc1C(=O)N/N=C/c1ccc(Cl)cc1Cl")
"> 100 µM"
>>> result("C=C(C)C1Cc2c(cc(O)c3c(=O)c4c(oc23)C(O)Oc2cc(OC)c(OC)cc2-4)O1 (stereo not given)")
"> 10 µM"
>>> result("Clc1cc(Cc2cc(Cl)c(Cl)c3c2OCOC3)c2c(c1Cl)COCO2")
"> 100 µM"
>>> result("Cc1ccc(-n2c3c(c4c(CN(C)C)c(O)ccc42)CCc2ccccc2C3=O)cc1")
"25.9 µM"
>>> result("C=CC(c1ccccc1)[C@@]1(OC(C)=O)C(=O)C(=O)OC1C1COC(C)(C)O1 (stereo not given in full)")
"> 26 µM"

----------
# System: COLO 205 colon
# EXPERIMENT: NCI tumour cell line growth inhibition, 48 h
QUANTITY KIND: GI50

>>> result("Fc1ccc2c(c1)c(-c1nc(-c3c[nH]c4ncccc34)cs1)cn2CCCN1CCCCC1")
"1730 nM"
>>> result("CCC(CO)Nc1nc(NCc2ccccc2O)c2ncn(C(C)C)c2n1 (stereo not given)")
"1950 nM"
>>> result("CC1=C2C[C@H]3[C@@H](CC[C@@H]4CC(NS(C)(=O)=O)CC[C@@]43C)[C@@H]2CC[C@@]2(C1)O[C@@H]1C[C@H](C)CN[C@H]1[C@H]2C (stereo not given in full)")
"2250 nM"
>>> result("O=c1nc2n(-c3ccc(Cl)cc3)c3ccc([N+](=O)[O-])cc3cc-2c(=O)[nH]1")
"13200 nM"
>>> result("COc1ccccc1CCN=C1NC(=O)/C(=C/c2ccc3ncccc3c2)S1")
"2860 nM"

----------
# Tested on: UACC-62 melanoma
# EXPERIMENT: NCI tumour cell line growth inhibition, 48 h
Catalogue of TGI readings, one per entry.
QUANTITY KIND: TGI

>>> result("NC(N)=N/N=C\\c1cccc(OCc2ccccc2)c1")
"3.45 µM"
>>> result("Cc1ccc(-n2c3c(c4c(CN(C)C)c(O)ccc42)CCc2ccccc2C3=O)cc1")
"30.9 µM"
>>> result("CC(=O)NC(C)(C)C1CC=C(C)CC1 (centres undefined)")
"> 100 µM"
>>> result("CN(C(=O)C12C3C4C1C1C4(C(=O)C45C6C7C4C4C5C6C74C)C3C12C)C(C)(C)C (centres undefined)")
"> 100 µM"
>>> result("N=C(c1ccc2ccccc2c1)c1ccccc1Cc1ccccc1")
"> 100 µM"
>>> result("N#Cc1c(Cl)cccc1Oc1ccc(S(=O)(=O)/N=C(\\NN)Nc2ccc(Cl)cc2)cc1")
"38.8 µM"
>>> result("CCCCCCCCCc1cc(-c2ccc(C=O)s2)sc1-c1ccc(C=O)s1")
"23.7 µM"
>>> result("CC(C)(C)OC(=O)c1cnc(Cl)cn1")
"> 100 µM"
>>> result("CN(C)c1ccc(/C=c2/c3ccccc3n3nc4ccccc4c23)cc1")
"> 100 µM"
>>> result("CC(C)=NN/C(=N\\S(=O)(=O)c1ccc(C)cc1)Nc1ccc(Cl)cc1")
"> 100 µM"
>>> result("Cc1nc2sc3ccccc3n2c(=O)c1N=Nc1ccc(Br)cc1")
"> 100 µM"
>>> result("CCCCCC/C=C1\\CCC(CN2CCCC2)C1=O (centres undefined)")
"35.9 µM"
>>> result("COc1ccc(C(=O)Cc2c(C(=O)c3ccccc3)c3ccccc3n2C(=O)c2ccccc2)cc1")
"> 100 µM"
>>> result("Cc1ccc2ccccc2c1NC1=NCCO1")
"> 100 µM"
>>> result("O=C(CC1(O)C(=O)Nc2c(Cl)ccc(Cl)c21)c1ccc2ccccc2c1 (centres undefined)")
"10.7 µM"
>>> result("COC(=O)c1c2c(c(C)[n+]([O-])c1C)C(=O)C=C(NCc1ccc(F)c(Cl)c1)C2=O")
"0.662 µM"
>>> result("CC1=C2C[C@H]3[C@@H](CC[C@@H]4CC(NS(C)(=O)=O)CC[C@@]43C)[C@@H]2CC[C@@]2(C1)O[C@@H]1C[C@H](C)CN[C@H]1[C@H]2C (some centres undefined)")
"21.8 µM"
>>> result("CC(C)(C)c1cc(-c2cc(C(C)(C)C)n(-c3ccccc3)n2)nn1-c1ccccc1")
"> 100 µM"
>>> result("COc1ccc(/C=C\\c2cc(OC)c(OC)c(OC)c2)cc1OC(=O)c1cccc(Cn2cc(CCOC(=O)[C@H](N)Cc3cn(C)c4ccccc34)nn2)c1")
"24.2 µM"
>>> result("COc1ccc(C[C@H](N)C(=O)NC2C(CO)OC(n3cnc4c(N(C)C)ncnc43)C2O)cc1 (some centres undefined)")
"0.411 µM"
>>> result("NC(=O)C(N)=O")
"> 100 µM"
>>> result("CC(=O)[C@@]1(O)CC[C@H]2[C@@H]3C[C@H](C)C4=CC(=O)CC[C@]4(C)[C@H]3[C@@H](O)C[C@@]21C")
"> 100 µM"
>>> result("N#C/C(=C/c1ccc[nH]1)P(=O)(O)O")
"> 100 µM"
>>> result("C=CC(=O)N1CCN(c2nc(=O)n(-c3c(C)ccnc3C(C)C)c3nc(-c4c(O)cccc4F)c(F)cc23)[C@@H](C)C1")
"> 73.6 µM"
>>> result("O=C1c2ccccc2C(=O)[C@@]23O[C@@]12C1(Oc2cccc4cccc(c24)O1)[C@@H]1O[C@@H]1[C@@H]3O")
"27.2 µM"
>>> result("Cc1ccc2c(=O)c3cccc(CC(=O)O)c3[nH]c2c1C")
"> 100 µM"
>>> result("COc1cc(NC(C)=O)ccc1C(=O)N/N=C/c1ccc(Cl)cc1Cl")
"> 100 µM"
>>> result("CC(C)(C)N1C(C(=O)c2ccccc2)C1c1ccccc1 (centres undefined)")
"> 100 µM"
>>> result("COc1cc(C)c2c(=O)c3ccccc3n(C)c2c1")
"39.2 µM"
>>> result("O=C1c2ccccc2NC(=O)C2C1C(c1ccccc1)CC2(O)c1ccccc1 (centres undefined)")
"> 100 µM"
>>> result("Nc1nc(N)c(C2=CCNCC2)c(=O)[nH]1")
"> 100 µM"
>>> result("c1ccc(N=C(Nc2ccccc2)N2CCCCC2)cc1")
"> 100 µM"
>>> result("CC(=O)Nc1ccc(NC(=O)c2c(Cl)c(Cl)c(Cl)c(Cl)c2-c2nc3ccccc3[nH]2)cc1")
"> 100 µM"
>>> result("COC1CC(OC2C(C)OC(OC3C(C)OC(OC4C(O)CC(O[C@H]5CC[C@@]6(C)C(=CC[C@]7(O)[C@@H]6C[C@@H](OC(=O)/C=C/c6ccccc6)[C@@]6(C)[C@]7(O)CC[C@@]6(O)C(C)=O)C5)OC4C)CC3OC)CC2OC)OC(C)C1O (some centres undefined)")
"> 6.25 µM"
